- Test system: Streptococcus pneumoniae
- test.description: Antibacterial activity against macrolide-resistant Streptococcus pneumoniae 3665 harboring mef(A) gene after overnight incubation by agar dilution method
- Assay type: functional
quantity.measured: MIC (µg/mL)
The reply should be a number in µg/mL, with the unit left off.

Worked cases, MIC given:
INSERT INTO measurements (entry_smiles, quantity_measured, units_label, test_result) VALUES
  ('CC[C@H]1OC(=O)[C@@](C)(F)C(=O)[C@H](C)[C@@H](O[C@@H]2O[C@H](C)C[C@H](N(C)C)[C@H]2O)[C@](C)(OC)C[C@@H](C)C(=O)[C@H](C)[C@H]2N(CCCCn3cc(-c4cccc(N)c4)nn3)C(=O)O[C@]12C', 'MIC', 'µg/mL', 0.03),
  ('CC[C@H]1OC(=O)[C@H](C)[C@@H](O[C@H]2C[C@@](C)(OC)[C@@H](O)[C@H](C)O2)[C@H](C)[C@@H](O[C@@H]2O[C@H](C)C[C@H](N(C)C)[C@H]2O)[C@](C)(OC)C[C@@H](C)C(=O)[C@H](C)[C@@H](O)[C@]1(C)O', 'MIC', 'µg/mL', 2),
  ('CC[C@H]1OC(=O)[C@H](C)C(=O)[C@H](C)[C@@H](O[C@@H]2O[C@H](C)C[C@H](N(C)C)[C@H]2O)[C@](C)(OC)C[C@@H](C)C(=O)[C@H](C)[C@H]2N(CCCCn3cnc(-c4cccnc4)c3)C(=O)O[C@]12C', 'MIC', 'µg/mL', 0.125),
  ('CCC[C@@H]1C[C@@H](C(=O)N[C@@H]([C@H]2O[C@H](SC)[C@H](O)[C@@H](O)[C@H]2O)[C@H](C)Cl)N(C)C1', 'MIC', 'µg/mL', 0.016);

Lookup: Any idea what MIC was measured for `CC[C@H]1OC(=O)[C@H](C)[C@@H](O[C@H]2C[C@@](C)(OC)[C@@H](O)[C@H](C)O2)[C@H](C)[C@@H](O[C@@H]2O[C@H](C)C[C@H](N(C)C)[C@H]2O)[C@](C)(O)C[C@@H](C)CN(C)[C@H](C)[C@@H](O)[C@]1(C)O` ?
Found: 8

* * *

- System: Streptococcus pneumoniae
- test.description: Antibacterial activity against quinolone-susceptible Streptococcus pneumoniae after overnight incubation by agar dilution method
- Format: functional
quantity.measured: MIC90

The following compounds have reported results that may help.
INSERT INTO assay_data (entry_smiles, quantity_measured, test_result) VALUES
  ('CC1(C)S[C@@H]2[C@H](NC(=O)Cc3ccccc3)C(=O)N2[C@H]1C(=O)O', 'MIC90', '4 µg/mL'),
  ('CC[C@H]1OC(=O)[C@H](C)C(=O)[C@H](C)[C@@H](O[C@@H]2O[C@H](C)C[C@H](N(C)C)[C@H]2O)[C@](C)(OC)C[C@@H](C)C(=O)[C@H](C)[C@H]2N(CCCCn3cnc(-c4cccnc4)c3)C(=O)O[C@]12C', 'MIC90', '0.5 µg/mL'),
  ('CC[C@H]1OC(=O)[C@H](C)[C@@H](O[C@H]2C[C@@](C)(OC)[C@@H](O)[C@H](C)O2)[C@H](C)[C@@H](O[C@@H]2O[C@H](C)C[C@H](N(C)C)[C@H]2O)[C@](C)(O)C[C@@H](C)CN(C)[C@H](C)[C@@H](O)[C@]1(C)O', 'MIC90', '> 64 µg/mL'),
  ('C[C@H]1COc2c(N3CCN(C)CC3)c(F)cc3c(=O)c(C(=O)O)cn1c23.C[C@H]1COc2c(N3CCN(C)CC3)c(F)cc3c(=O)c(C(=O)O)cn1c23.O', 'MIC90', '2 µg/mL');

Lookup: I have this compound here, `CC[C@H]1OC(=O)[C@@](C)(F)C(=O)[C@H](C)[C@@H](O[C@@H]2O[C@H](C)C[C@H](N(C)C)[C@H]2O)[C@](C)(OC)C[C@@H](C)C(=O)[C@H](C)[C@H]2N(CCCCn3cc(-c4cccc(N)c4)nn3)C(=O)O[C@]12C` , and I need its recorded MIC90.
Found: 0.25 µg/mL
